B1: CLCN6 (parent)
chain: ILRSQLVTLLVRGVCYSESQSSAS

Variants of: B1
MEASUREMENT PROTOCOL: protein stability index of a GFP-peptide fusion (GPS, HEK-293T) (PSI 1-6); higher = more stable;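 also: lentivirally expressed fusions sorted by FACS into six bins by GFP to DsRed ratio, PSI derived from sequencing read proportions per bin multiplied by bin number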
MEASUREMENT CONDITIONS: c terminus: a fixed tail appended

[
  {
    "MUTANT ID": "S19G",
    "protein stability index": 1.57
  },
  {
    "MUTANT ID": "L9C",
    "protein stability index": 3.61
  },
  {
    "MUTANT ID": "V14S",
    "protein stability index": 2.76
  },
  {
    "MUTANT ID": "S19Q",
    "protein stability index": 1.79
  },
  {
    "MUTANT ID": "S24W",
    "protein stability index": 2.9
  },
  {
    "MUTANT ID": "S17A",
    "protein stability index": 2.45
  },
  {
    "MUTANT ID": "S17I",
    "protein stability index": 3.39
  },
  {
    "MUTANT ID": "A23Y",
    "protein stability index": 3
  },
  {
    "MUTANT ID": "A23K",
    "protein stability index": 2.29
  },
  {
    "MUTANT ID": "S19Y",
    "protein stability index": 2.44
  },
  {
    "MUTANT ID": "R12P",
    "protein stability index": 2.67
  },
  {
    "MUTANT ID": "L10N",
    "protein stability index": 2.49
  },
  {
    "MUTANT ID": "E18F",
    "protein stability index": 5.28
  },
  {
    "MUTANT ID": "R12L",
    "protein stability index": 3.03
  },
  {
    "MUTANT ID": "V14T",
    "protein stability index": 3.29
  },
  {
    "MUTANT ID": "S24F",
    "protein stability index": 3.24
  },
  {
    "MUTANT ID": "S21W",
    "protein stability index": 3.14
  },
  {
    "MUTANT ID": "Q20V",
    "protein stability index": 2.68
  },
  {
    "MUTANT ID": "I1A",
    "protein stability index": 3.79
  },
  {
    "MUTANT ID": "L9W",
    "protein stability index": 2.83
  },
  {
    "MUTANT ID": "S21K",
    "protein stability index": 2.66
  },
  {
    "MUTANT ID": "A23P",
    "protein stability index": 3.09
  },
  {
    "MUTANT ID": "Q5E",
    "protein stability index": 3.8
  },
  {
    "MUTANT ID": "V14R",
    "protein stability index": 2.67
  },
  {
    "MUTANT ID": "V14N",
    "protein stability index": 1.57
  },
  {
    "MUTANT ID": "C15V",
    "protein stability index": 5.04
  },
  {
    "MUTANT ID": "G13V",
    "protein stability index": 3.06
  },
  {
    "MUTANT ID": "L9G",
    "protein stability index": 1.8
  },
  {
    "MUTANT ID": "S24R",
    "protein stability index": 2.78
  },
  {
    "MUTANT ID": "S19F",
    "protein stability index": 3.38
  },
  {
    "MUTANT ID": "L10W",
    "protein stability index": 3.87
  },
  {
    "MUTANT ID": "C15G",
    "protein stability index": 3.11
  },
  {
    "MUTANT ID": "A23F",
    "protein stability index": 3.27
  },
  {
    "MUTANT ID": "L6M",
    "protein stability index": 1.98
  },
  {
    "MUTANT ID": "L6F",
    "protein stability index": 2.41
  },
  {
    "MUTANT ID": "S17P",
    "protein stability index": 2.5
  },
  {
    "MUTANT ID": "S4V",
    "protein stability index": 2.58
  },
  {
    "MUTANT ID": "I1M",
    "protein stability index": 3.86
  },
  {
    "MUTANT ID": "E18W",
    "protein stability index": 2.86
  },
  {
    "MUTANT ID": "G13H",
    "protein stability index": 3.18
  },
  {
    "MUTANT ID": "S22Y",
    "protein stability index": 3.28
  },
  {
    "MUTANT ID": "R3P",
    "protein stability index": 2.36
  },
  {
    "MUTANT ID": "L6A",
    "protein stability index": 2.2
  },
  {
    "MUTANT ID": "S19P",
    "protein stability index": 1.82
  },
  {
    "MUTANT ID": "L2E",
    "protein stability index": 1.93
  },
  {
    "MUTANT ID": "S22T",
    "protein stability index": 2.11
  }
]
